These entries and their values trace back to patent US20240109896A1.

Listing: pIC50 of selected compounds
System: Hep3B cells
Assay: Human hepatoma cell Hep3B survival test (CellTiter-Glo)
Format: cell-based
Conditions: Homo sapiens, treated 72 hours, read-out: inhibitory activity on Hep3B cell proliferation IC50
pIC50: −log10 of the molar value.

The cases that follow already have their pIC50 on record.
>  <compound>
CCN1C(=O)N(c2c(F)c(OC)cc(OC)c2F)Cc2cnc3[nH]c(CN4CCOCC4)cc3c21 [Pemigatinib, reference compound]

>  <pIC50>
7.00 to 8.00

$$$$
>  <compound>
CCN1CCN(c2ccc(Nc3cc(N(C)C(=O)Nc4c(Cl)c(OC)cc(OC)c4Cl)ncn3)cc2)CC1 [BGJ398, infigratinib, reference compound]

>  <pIC50>
7.00 to 8.00

$$$$
>  <compound>
C=CC(=O)N1CCC[C@H](n2nc(C#Cc3cc(OC)cc(OC)c3)c3c(N)n[nH]c(=O)c32)C1

>  <pIC50>
> 8.00

$$$$
>  <compound>
C=CC(=O)N1CC[C@H](n2cc(C#Cc3cc(OC)cc(OC)c3)c3c(N)n[nH]c(=O)c32)C1

>  <pIC50>
> 8.00

$$$$
>  <compound>
C=CC(=O)N1CCC[C@H](n2cc(C#Cc3cc(OC)cc(OC)c3)c3c(N)n[nH]c(=O)c32)C1

>  <pIC50>
> 8.00

$$$$
>  <compound>
C=CC(=O)N1CC[C@H](n2nc(C#Cc3c(Cl)c(OC)cc(OC)c3Cl)c3c(N)n[nH]c(=O)c32)C1

>  <pIC50>
> 8.00

$$$$

Ask | Hep3B cells / pIC50 / C=CC(=O)N1CC[C@H](n2cc(-c3cc4cc(C)cc(OC)c4s3)c3c(N)n[nH]c(=O)c32)C1 : value?
Reply | > 8.00
